Assay: pKa of voruciclib malonate
Assay type: physicochemical
Conditions: second value listed
recorded-endpoint: pKa

Ask | # input compound: CN1CC[C@@H](c2c(O)cc(O)c3c(=O)cc(-c4ccc(C(F)(F)F)cc4Cl)oc23)[C@@H]1CO.O=C(O)CC(=O)O [Voruciclib Malonate] ; wanted: its pKa
Reply | 9.59
